The measurements presented in this section are drawn from ChEMBL document CHEMBL3108710.

test: Elimination half life in Han Wistar rat at 1 mg/kg, iv by LC-MS/MS analysis; assay type: ADME, organism-based; design: dose 1 mg/kg, route intravenous; settings: in vivo, read-out: beta t1/2 (converted)
assayMetric: half-life (min)

INSERT INTO assay_data (entrysmiles, assayresult) VALUES
  ('CN[C@@H](C)C(=O)N[C@H](C(=O)N1CCC[C@H]1C(=O)N[C@H]1c2ccccc2C[C@H]1OCCOCCO[C@@H]1Cc2ccccc2[C@@H]1NC(=O)[C@@H]1CCCN1C(=O)[C@@H](NC(=O)[C@H](C)NC)C1CCCCC1)C1CCCCC1', 72);

###

test: Aqueous equilibrium solubility of compound in phosphate buffer at pH 7.4 after 24 hrs by HPLC-UV analysis; assay type: physicochemical
assayMetric: solubility thermodynamic at 24 h (µM)

INSERT INTO measurements (entrysmiles, relationsign, assayresult) VALUES
  ('CN[C@@H](C)C(=O)N[C@H](C(=O)N1CC=C[C@H]1C(=O)N[C@H]1c2ccccc2C[C@H]1OCC#CC#CCO[C@@H]1Cc2ccccc2[C@@H]1NC(=O)[C@@H]1C=CCN1C(=O)[C@@H](NC(=O)[C@H](C)NC)C1CCCCC1)C1CCCCC1', '=', 77),
  ('CN[C@@H](C)C(=O)N[C@H](C(=O)N1CSC[C@H]1C(=O)N[C@H]1c2ccccc2C[C@H]1OCC#CC#CCO[C@@H]1Cc2ccccc2[C@@H]1NC(=O)[C@@H]1CSCN1C(=O)[C@@H](NC(=O)[C@H](C)NC)C(C)(C)C)C(C)(C)C', '=', 268),
  ('CN[C@@H](C)C(=O)N[C@H](C(=O)N1[C@H](C(=O)N[C@H]2c3ccccc3C[C@H]2OCC#CC#CCO[C@@H]2Cc3ccccc3[C@@H]2NC(=O)[C@@H]2C[C@@H]3C[C@@H]3N2C(=O)[C@@H](NC(=O)[C@H](C)NC)C2CCCCC2)C[C@@H]2C[C@@H]21)C1CCCCC1', '=', 48),
  ('CN[C@@H](C)C(=O)N[C@H](C(=O)N1CCC[C@H]1C(=O)N[C@H]1c2ccccc2C[C@H]1OCC#CC#CCO[C@@H]1Cc2ccccc2[C@@H]1NC(=O)[C@@H]1CCCN1C(=O)[C@@H](NC(=O)[C@H](C)NC)C(C)(C)C)C(C)(C)C', '>', 1000),
  ('CN[C@@H](C)C(=O)N[C@H](C(=O)N1CSC[C@H]1C(=O)N[C@H]1c2ccccc2C[C@H]1OCC#CC#CCO[C@@H]1Cc2ccccc2[C@@H]1NC(=O)[C@@H]1CSCN1C(=O)[C@@H](NC(=O)[C@H](C)NC)C1CCCCC1)C1CCCCC1', '<', 1),
  ('CN[C@@H](C)C(=O)N[C@H](C(=O)N1CSC2(CC2)[C@H]1C(=O)N[C@H]1c2ccccc2C[C@H]1OCC#CC#CCO[C@@H]1Cc2ccccc2[C@@H]1NC(=O)[C@H]1N(C(=O)[C@@H](NC(=O)[C@H](C)NC)C2CCCCC2)CSC12CC2)C1CCCCC1', '<', 1),
  ('CN[C@@H](C)C(=O)N[C@H](C(=O)N1CCC[C@H]1C(=O)N[C@H]1c2ccccc2CC[C@H]1OCC#CC#CCO[C@@H]1CCc2ccccc2[C@@H]1NC(=O)[C@@H]1CCCN1C(=O)[C@@H](NC(=O)[C@H](C)NC)C(C)(C)C)C(C)(C)C', '>', 1000);

###

biological target: E3 ubiquitin-protein ligase XIAP (Homo sapiens, UniProt P98170); assay: Displacement of AbuRPFK-5FAM from GST-tagged XIAP BIR3 domain (N252 to E350) (unknown origin) after 20 mins by fluorescence polarization assay
Sequence (P98170 whole entry, the tested form may be a part): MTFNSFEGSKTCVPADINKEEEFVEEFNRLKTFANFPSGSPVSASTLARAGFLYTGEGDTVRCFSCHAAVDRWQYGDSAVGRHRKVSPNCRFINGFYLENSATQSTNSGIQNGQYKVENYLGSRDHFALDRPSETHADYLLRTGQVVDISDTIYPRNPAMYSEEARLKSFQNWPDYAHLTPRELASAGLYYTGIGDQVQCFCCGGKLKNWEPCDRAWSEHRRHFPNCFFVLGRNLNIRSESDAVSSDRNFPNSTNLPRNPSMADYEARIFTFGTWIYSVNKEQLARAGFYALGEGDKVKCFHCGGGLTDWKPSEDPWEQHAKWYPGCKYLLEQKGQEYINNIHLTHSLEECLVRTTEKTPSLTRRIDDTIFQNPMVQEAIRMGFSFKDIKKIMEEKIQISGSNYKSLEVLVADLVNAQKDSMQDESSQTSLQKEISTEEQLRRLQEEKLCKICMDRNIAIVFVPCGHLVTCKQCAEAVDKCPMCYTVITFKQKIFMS
pIC50: −log10 of the molar value.
assayMetric: pIC50

INSERT INTO measurements (entrysmiles, assaymetric, assayresult) VALUES
  ('C#CCO[C@H]1CCc2ccccc2[C@@H]1NC(=O)[C@@H]1CCCN1C(=O)[C@@H](NC(=O)[C@H](C)NC)C(C)(C)C', 'pIC50', 7.02),
  ('CN[C@@H](C)C(=O)N[C@H](C(=O)N1CCC[C@H]1C(=O)N[C@H]1c2ccccc2C[C@H]1OCC#CC#CCO[C@@H]1Cc2ccccc2[C@@H]1NC(=O)[C@@H]1CCCN1C(=O)[C@@H](NC(=O)[C@H](C)NC)C1CCCCC1)C1CCCCC1', 'pIC50', 7.82),
  ('C#CCO[C@@H]1CCc2ccccc2[C@@H]1NC(=O)[C@@H]1CCCN1C(=O)[C@@H](NC(=O)[C@H](C)NC)C(C)(C)C', 'pIC50', 7.72),
  ('C#CCO[C@H]1CCc2ccccc2[C@H]1NC(=O)[C@@H]1CCCN1C(=O)[C@@H](NC(=O)[C@H](C)NC)C(C)(C)C', 'pIC50', 6.22),
  ('C#CCO[C@@H]1CCc2ccccc2[C@H]1NC(=O)[C@@H]1CCCN1C(=O)[C@@H](NC(=O)[C@H](C)NC)C(C)(C)C', 'pIC50', 5.88);

###

assay: Total plasma clearance in Han Wistar rat at 1 mg/kg, iv by LC-MS/MS analysis; assay type: ADME, organism-based; design: dose 1 mg/kg, route intravenous
assayMetric: clearance (L/h/kg)

INSERT INTO measurements (entrysmiles, assaymetric, measurementunit, assayresult) VALUES
  ('CN[C@@H](C)C(=O)N[C@H](C(=O)N1CCC[C@H]1C(=O)N[C@H]1c2ccccc2C[C@H]1OCCOCCO[C@@H]1Cc2ccccc2[C@@H]1NC(=O)[C@@H]1CCCN1C(=O)[C@@H](NC(=O)[C@H](C)NC)C1CCCCC1)C1CCCCC1', 'clearance', 'L/h/kg', 4.8);

###

Listed compounds paired with reported pIC50
target: Baculoviral IAP repeat-containing protein 2 (Homo sapiens); experiment: Displacement of AbuRPFK-5FAM from GST-tagged cIAP1 BIR3 domain (L250 to G350) (unknown origin) after 20 mins by fluorescence polarization assay
pIC50: −log10 of the molar value.
assayMetric: pIC50

INSERT INTO measurements (entrysmiles, assaymetric, assayresult) VALUES
  ('C#CCO[C@@H]1CCc2ccccc2[C@@H]1NC(=O)[C@@H]1CCCN1C(=O)[C@@H](NC(=O)[C@H](C)NC)C(C)(C)C', 'pIC50', 8.00),
  ('C#CCO[C@H]1CCc2ccccc2[C@@H]1NC(=O)[C@@H]1CCCN1C(=O)[C@@H](NC(=O)[C@H](C)NC)C(C)(C)C', 'pIC50', 7.85),
  ('CN[C@@H](C)C(=O)N[C@H](C(=O)N1CCC[C@H]1C(=O)N[C@H]1c2ccccc2C[C@H]1OCC#CC#CCO[C@@H]1Cc2ccccc2[C@@H]1NC(=O)[C@@H]1CCCN1C(=O)[C@@H](NC(=O)[C@H](C)NC)C1CCCCC1)C1CCCCC1', 'pIC50', 7.82),
  ('C#CCO[C@@H]1CCc2ccccc2[C@H]1NC(=O)[C@@H]1CCCN1C(=O)[C@@H](NC(=O)[C@H](C)NC)C(C)(C)C', 'pIC50', 6.54),
  ('C#CCO[C@H]1CCc2ccccc2[C@H]1NC(=O)[C@@H]1CCCN1C(=O)[C@@H](NC(=O)[C@H](C)NC)C(C)(C)C', 'pIC50', 7.40);

###

test: Total plasma clearance in Han Wistar rat at 0.5 mg/kg, iv by LC-MS/MS analysis; assay type: ADME, organism-based; design: dose 0.5 mg/kg, route intravenous
Listed compounds paired with reported clearance
assayMetric: clearance

INSERT INTO assay_data (entrysmiles, assaymetric, assayresult) VALUES
  ('CN[C@@H](C)C(=O)N[C@H](C(=O)N1CCC[C@H]1C(=O)N[C@H]1c2ccccc2C[C@H]1OCC#CC#CCO[C@@H]1Cc2ccccc2[C@@H]1NC(=O)[C@@H]1CCCN1C(=O)[C@@H](NC(=O)[C@H](C)NC)C1CCCCC1)C1CCCCC1', 'clearance', '50 mL/min/kg'),
  ('CN[C@@H](C)C(=O)N[C@H](C(=O)N1CCC[C@H]1C(=O)N[C@H]1c2ccccc2C[C@H]1NC(=O)c1ccc(C(=O)N[C@@H]2Cc3ccccc3[C@@H]2NC(=O)[C@@H]2CCCN2C(=O)[C@@H](NC(=O)[C@H](C)NC)C2CCCCC2)cc1)C1CCCCC1', 'clearance', '37 mL/min/kg');

###

molecular target: Baculoviral IAP repeat-containing protein 2 (Homo sapiens, UniProt Q13490); assay: Binding affinity to cIAP1 in human MDA-MB-231 cells assessed as induction of protein degradation after 1 hr by ELISA
Sequence (Q13490 whole entry, the tested form may be a part): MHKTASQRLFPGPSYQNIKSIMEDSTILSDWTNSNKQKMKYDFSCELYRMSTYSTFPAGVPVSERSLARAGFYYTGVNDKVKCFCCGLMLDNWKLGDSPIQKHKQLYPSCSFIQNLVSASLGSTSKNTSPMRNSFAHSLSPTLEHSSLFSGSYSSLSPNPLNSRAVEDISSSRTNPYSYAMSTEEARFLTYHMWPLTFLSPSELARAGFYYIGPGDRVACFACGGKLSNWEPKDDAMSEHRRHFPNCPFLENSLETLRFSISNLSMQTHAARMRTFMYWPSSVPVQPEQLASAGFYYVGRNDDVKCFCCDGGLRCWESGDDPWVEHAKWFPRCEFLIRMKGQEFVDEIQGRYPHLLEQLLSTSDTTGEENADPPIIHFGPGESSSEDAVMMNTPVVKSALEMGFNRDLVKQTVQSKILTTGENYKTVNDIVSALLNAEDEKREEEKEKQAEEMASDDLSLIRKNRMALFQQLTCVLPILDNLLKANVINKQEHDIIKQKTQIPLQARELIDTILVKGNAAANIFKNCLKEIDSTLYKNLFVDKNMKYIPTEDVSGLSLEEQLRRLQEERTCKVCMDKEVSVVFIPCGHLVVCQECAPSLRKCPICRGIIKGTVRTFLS
assayMetric: EC50 (nM)

INSERT INTO assay_data (entrysmiles, assaymetric, relationsign, assayresult) VALUES
  ('CN[C@@H](C)C(=O)N[C@H](C(=O)N1CCC[C@H]1C(=O)N[C@H]1c2ccccc2C[C@H]1OCCOCCO[C@@H]1Cc2ccccc2[C@@H]1NC(=O)[C@@H]1CCCN1C(=O)[C@@H](NC(=O)[C@H](C)NC)C1CCCCC1)C1CCCCC1', 'EC50', '=', 0.6),
  ('C#CCO[C@H]1CCc2ccccc2[C@H]1NC(=O)[C@@H]1CCCN1C(=O)[C@@H](NC(=O)[C@H](C)NC)C(C)(C)C', 'EC50', '=', 126),
  ('CN[C@@H](C)C(=O)N[C@H](C(=O)N1CCC[C@H]1C(=O)N[C@H]1c2ccccc2CC[C@@H]1OCC#CC#CCO[C@H]1CCc2ccccc2[C@@H]1NC(=O)[C@@H]1CCCN1C(=O)[C@@H](NC(=O)[C@H](C)NC)C(C)(C)C)C(C)(C)C', 'EC50', '=', 0.6),
  ('CN[C@@H](C)C(=O)N[C@H](C(=O)N1CCC[C@H]1C(=O)N[C@@H]1CCN(CC#CC#CCN2CC[C@@H](NC(=O)[C@@H]3CCCN3C(=O)[C@@H](NC(=O)[C@H](C)NC)C3CCCCC3)c3ccccc32)c2ccccc21)C1CCCCC1', 'EC50', '=', 0.2),
  ('CN[C@@H](C)C(=O)N[C@H](C(=O)N1CCC[C@H]1C(=O)N[C@@H]1c2ccccc2CC[C@@H]1OCC#CC#CCO[C@H]1CCc2ccccc2[C@H]1NC(=O)[C@@H]1CCCN1C(=O)[C@@H](NC(=O)[C@H](C)NC)C(C)(C)C)C(C)(C)C', 'EC50', '=', 4),
  ('CN[C@@H](C)C(=O)N[C@H](C(=O)N1CCC[C@H]1C(=O)N[C@H]1c2ccccc2C[C@H]1OCC#CC#CCO[C@@H]1Cc2ccccc2[C@@H]1NC(=O)[C@@H]1CCCN1C(=O)[C@@H](NC(=O)[C@H](C)NC)C1CCN(CCO)CC1)C1CCN(CCO)CC1', 'EC50', '>', 370),
  ('CN[C@@H](C)C(=O)N[C@H](C(=O)N1CCC[C@H]1C(=O)N[C@H]1c2ccccc2C[C@H]1OCC#CC#CCO[C@@H]1Cc2ccccc2[C@@H]1NC(=O)[C@@H]1CCCN1C(=O)[C@@H](NC(=O)[C@H](C)NC)C1CCCCC1)C1CCCCC1', 'EC50', '=', 0.1),
  ('CN[C@@H](C)C(=O)N[C@H](C(=O)N1CSC[C@H]1C(=O)N[C@H]1c2ccccc2C[C@H]1OCC#CC#CCO[C@@H]1Cc2ccccc2[C@@H]1NC(=O)[C@@H]1CSCN1C(=O)[C@@H](NC(=O)[C@H](C)NC)C1CCCCC1)C1CCCCC1', 'EC50', '=', 0.2),
  ('CN[C@@H](C)C(=O)N[C@H](C(=O)N1CCC[C@H]1C(=O)N[C@@H]1c2ccccc2CC[C@H]1OCC#CC#CCO[C@@H]1CCc2ccccc2[C@H]1NC(=O)[C@@H]1CCCN1C(=O)[C@@H](NC(=O)[C@H](C)NC)C(C)(C)C)C(C)(C)C', 'EC50', '=', 2),
  ('CN[C@@H](C)C(=O)N[C@H](C(=O)N1CCC[C@H]1C(=O)N[C@H]1c2ccccc2C[C@H]1OCCCCCCO[C@@H]1Cc2ccccc2[C@@H]1NC(=O)[C@@H]1CCCN1C(=O)[C@@H](NC(=O)[C@H](C)NC)C1CCCCC1)C1CCCCC1', 'EC50', '=', 0.1);
